# CONDITIONS: 293.15 K; 101.33 kPa; Liquid
EXPERIMENTAL ENDPOINT: mass density (kg/m3)

CC#N | 778.3
CCCCCO | 815.11
CCO | 786.44
CO | 787.83
CCCO | 801.3
CCCCO | 807.33

* * *

# CONDITIONS: 293.15 K, Pendant drop shape
EXPERIMENTAL ENDPOINT: surface tension liquid-gas (mN/m)

CCCCCO [pentan-1-ol] | 25.46
CCCO [propan-1-ol] | 23.78
CCO [ethanol] | 22.31
CCCCO [butan-1-ol] | 24.5
CO [methanol] | 22.78
CC#N [acetonitrile] | 29.25

Measured values drawn from the NIST ThermoML archive (doi:10.1021/je050519g) for this set.
